target: T1, ZIKV-VLP (Native Antigen Inc.) (Zika virus); experiment: BLI binning on ZIKV-VLP; 1st mAb (row): 289-3
T1 construct: also called Zika VLP; ZVLP
Measured Parameter: response of 2nd mAb

**Q:** Would you mind telling me what response of 2nd mAb value was observed for anti-ZIKV antibody 306-2 (antibody, V domains shown) VH: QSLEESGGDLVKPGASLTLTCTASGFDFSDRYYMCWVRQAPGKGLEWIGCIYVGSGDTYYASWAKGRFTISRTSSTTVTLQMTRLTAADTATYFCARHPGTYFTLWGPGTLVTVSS VL: DVVMTQTPSSVSAAVGGTVTINCQASQNIVNNLAWYQQRPGQPPKLLIYDTSTLASGVPSRFKGSGSGTEFTLTISDLECADAATYYCQTYYYYNKIINGFGGGTEVVVKG ?
**A:** 0.023
